- measuredOn: Mitogen-activated protein kinase 1 (Homo sapiens)
- Sequence (P28482 whole entry): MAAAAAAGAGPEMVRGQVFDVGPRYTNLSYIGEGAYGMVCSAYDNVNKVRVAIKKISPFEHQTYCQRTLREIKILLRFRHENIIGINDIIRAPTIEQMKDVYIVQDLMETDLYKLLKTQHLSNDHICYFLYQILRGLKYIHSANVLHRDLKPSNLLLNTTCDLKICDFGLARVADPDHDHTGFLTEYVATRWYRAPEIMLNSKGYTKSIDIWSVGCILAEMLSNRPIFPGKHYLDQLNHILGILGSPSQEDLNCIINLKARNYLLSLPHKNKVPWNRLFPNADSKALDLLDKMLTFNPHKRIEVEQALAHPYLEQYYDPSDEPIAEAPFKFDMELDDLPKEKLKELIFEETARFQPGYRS
- methodDescription: Inhibition of ERK2 by IMAP assay
reportedProperty: IC50 (µM)

>>> print(df.to_string())
                                   molecule  reportedproperty  endpointresult
0  COc1ccc(N2Cc3cnc(Nc4ccccc4)nc3N([C@@H]3CC[C@@H](O)C3)C2=O)cc1 (racemic)              IC50            3.04

###

- methodDescription: Tmax in Wistar rat at 50 mg/kg, po
- Type: ADME, organism-based
- Parameters: dose 50 mg/kg, route oral
- experimentalParameters: in vivo
reportedProperty: Tmax (h)

                                   molecule  reportedproperty  endpointresult
0  COc1ccc(N2Cc3cnc(Nc4ccccc4)nc3N([C@@H]3CC[C@@H](O)C3)C2=O)cc1 (racemic)              Tmax             5.3
